Test system: DMS-114
Test: NCI tumour cell line growth inhibition, 48 h
The source made the active and inactive calls. No stated cut-off is given here; in the data, active = GI50 up to about 1.1 µM and inactive = higher.
Outcomes you can answer with include only these: label 1 = active, label 0 = inactive

Below are worked cases with known answers.
1. C=CCOc1cc2c(cc1C(C)c1ccc(OC)cc1)OCO2 (centres undefined) ... label 1
2. CCOc1ccc(NCc2cc(OC)c(OC)c(OC)c2)cc1 ... label 1
3. NC(=S)NNC(=O)/C(=C/c1ccc(/C=C(\NC(=O)c2ccccc2)C(=O)NNC(N)=S)cc1)NC(=O)c1ccccc1 ... label 0
4. Cn1cnc([N+](=O)[O-])c1Sc1nccn1-c1ccccc1 ... label 0
5. CN(C)/C(N)=N\C#N ... label 0

Query :: Any idea what this test logged for N#CCCN(c1ccc(C=O)cc1)S(=O)(=O)c1ccccc1 ?
Result :: label 0

Query :: Per the assay record, what outcome was assigned to CCN(c1ccccc1)[C@H]1C(=O)N(c2ccc([N+](=O)[O-])cc2)[C@H]1c1ccc(OC)cc1 ?
Result :: label 0
